Test: in vivo
Details: male, Wistar, rat, sc
value_kind: LD50 (mg/kg)

>>> observed_result("OCCO [EG, Ethylene Glycol]")
3500

Attribution: patent US20100249116A1
